Reference source for all entries: patent US20160185837A1

target: human GLP-1 receptor (hGLP-1r) (Homo sapiens); construct: expressed in transfected cells; assay: BSA-cAMP assay, cells expressing human GLP-1 receptor; assay type: cell-based; details: Batch 1; BSA-cAMP assay; read-out: hGLP1r cAMP activity EC50
Sequence (P43220 24-463): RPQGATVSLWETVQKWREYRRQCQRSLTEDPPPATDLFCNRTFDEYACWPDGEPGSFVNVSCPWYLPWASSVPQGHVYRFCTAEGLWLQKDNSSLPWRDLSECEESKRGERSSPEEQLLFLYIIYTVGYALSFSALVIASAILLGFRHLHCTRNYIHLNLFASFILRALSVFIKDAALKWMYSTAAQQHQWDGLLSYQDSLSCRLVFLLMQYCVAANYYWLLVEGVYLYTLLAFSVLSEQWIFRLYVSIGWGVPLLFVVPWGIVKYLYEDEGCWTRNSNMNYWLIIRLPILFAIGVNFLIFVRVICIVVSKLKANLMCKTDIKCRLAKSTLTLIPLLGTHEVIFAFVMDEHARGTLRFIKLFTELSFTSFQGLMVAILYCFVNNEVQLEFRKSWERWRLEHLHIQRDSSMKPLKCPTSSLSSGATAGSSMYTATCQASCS
Below is a list of entries, each paired with its recorded EC50 value.

Check out these entries, answers already filled in.
substance	measurementTarget	dataValue
IP299: Fc fusion, IgG1-TM(ΔK), SEQ ID NO:351; agonist peptide YSEGTFISDYSKLLEEEAVRDFVEWLKAGG (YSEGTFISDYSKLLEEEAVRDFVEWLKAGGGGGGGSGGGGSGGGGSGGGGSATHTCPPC)	human GLP-1 receptor (hGLP-1r) (Homo sapiens)	> 3.64 µM
IP386 (YSEGTFISDYSIAMDKIHQQDFVNWLLAQKGGGGGSGGGGSGGGGSGGGGSACPPC)	human GLP-1 receptor (hGLP-1r) (Homo sapiens)	> 9.13 µM

Next substance, please.
Reported human GLP-1 receptor (hGLP-1r) (Homo sapiens) EC50 for item IP353 (YSEGTFTSDYAAAAEAAAAAAFAAWLAKAAGGGGGSGGGGSGGGGSGGGGSACPPC) was 0.02 µM

---

Biological target: human glucagon receptor (GCGr) (Homo sapiens)
Construct: expressed in transfected cells; host or cells: HEK293s or CHO cells
Sequence (P47871 26-477): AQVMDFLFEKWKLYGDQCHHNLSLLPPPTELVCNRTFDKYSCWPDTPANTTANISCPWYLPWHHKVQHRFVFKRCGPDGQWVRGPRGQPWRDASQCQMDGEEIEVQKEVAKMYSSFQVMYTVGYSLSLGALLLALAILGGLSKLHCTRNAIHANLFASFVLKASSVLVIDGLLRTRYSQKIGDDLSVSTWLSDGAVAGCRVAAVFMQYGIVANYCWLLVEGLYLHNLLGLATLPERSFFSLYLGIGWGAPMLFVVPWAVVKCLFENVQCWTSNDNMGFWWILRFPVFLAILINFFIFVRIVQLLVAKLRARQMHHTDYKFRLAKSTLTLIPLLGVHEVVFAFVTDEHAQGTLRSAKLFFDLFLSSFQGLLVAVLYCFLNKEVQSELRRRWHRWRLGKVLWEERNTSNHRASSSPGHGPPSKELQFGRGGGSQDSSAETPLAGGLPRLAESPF
Assay: BSA-cAMP assay, cells expressing human glucagon receptor
Format: cell-based
Details: Batch 1, read-out: hGCGr cAMP activity EC50
Protocol: One basic cAMP assays was performed, differing in the medium used for the assay, the “BSA-cAMP assay”: BSA-based assay medium: 0.1% bovine serum albumin (BSA) in […] cAMP levels were measured using a commercially available cAMP dynamic 2 HTRF kit (Cisbio, Cat #62AM4PEJ), following the two step protocol as per manufacturer's recommendations. […]
pEC50: −log10 of the molar value.
reportedMetric: pEC50

Check out these entries, answers already filled in.
substance	measurementTarget	dataValue
IP381: Fc fusion, IgG1-fusion, SEQ ID NO:377; agonist peptide YSEGTFTSDYSKLLEEEAVRLFIEYLLAGG (YSEGTFTSDYSKLLEEEAVRLFIEYLLAGGGGGGSGGGGSGGGGSGGGGSATHTCPPC)	human glucagon receptor (GCGr) (Homo sapiens)	7.74
IP302 (YSEGTFISDYSIALAAAAQQDFVNWLLAGGGGGGGSGGGGSGGGGSGGGGSATHTCPPC)	human glucagon receptor (GCGr) (Homo sapiens)	5.92
IP386 (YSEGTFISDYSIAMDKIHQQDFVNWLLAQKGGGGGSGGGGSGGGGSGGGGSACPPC)	human glucagon receptor (GCGr) (Homo sapiens)	6.27
IP395 (YSEGTFTSDYSKLLERQAIDEFIAHLLKGGGGGGGSGGGGSGGGGSGGGGSACPPC)	human glucagon receptor (GCGr) (Homo sapiens)	6.42
IP299: Fc fusion, IgG1-TM(ΔK), SEQ ID NO:351; agonist peptide YSEGTFISDYSKLLEEEAVRDFVEWLKAGG (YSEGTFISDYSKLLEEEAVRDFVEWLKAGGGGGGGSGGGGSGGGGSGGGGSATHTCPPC)	human glucagon receptor (GCGr) (Homo sapiens)	7.28

a = IP413: Fc fusion, IgG1-TM, SEQ ID NO:388; agonist peptide YSEGTFTSDYSKLLEEEASRLFIEWLLAGG (YSEGTFTSDYSKLLEEEASRLFIEWLLAGGGGGGSGGGGSGGGGSGGGGSATHTCPPC)
b = IP320 (YSEGTFTSDYAAAAEAAAAAAFAAWLAAAAGGGGGSGGGGSGGGGSGGGGSACPPC)
Could you tell me which of a and b has the lower pEC50 reading? # respond with the chosen item's label
b
(b: 5.42, a: 8.12)

P = IP335 (YSEGTFISDYSIAMDKIHQQDFVNWLLAQKGGGGGSGGGGSGGGGSGGGGSA)
Q = IP314: Fc fusion, IgG1-TM(ΔK), SEQ ID NO:431; agonist peptide YSEGTFISDYSKLLAAAAVRDFVNWLLAGG (YSEGTFISDYSKLLAAAAVRDFVNWLLAGGGGGGGSGGGGSGGGGSGGGGSATHTCPPC)
R = IP380: Fc fusion, IgG1-fusion, SEQ ID NO:376; agonist peptide YSEGTFTSDYSKLLEEEAVRLFIEFLLAGG (YSEGTFTSDYSKLLEEEAVRLFIEFLLAGGGGGGSGGGGSGGGGSGGGGSATHTCPPC)
Order the records by pEC50, with each subsequent value no larger than the one before. The response must list the labels following the requested ordering.
R, P, Q

---

Biological target: human GIP receptor (hGIPr) (Homo sapiens)
Construct: expressed in transfected cells
Sequence (P48546 22-466): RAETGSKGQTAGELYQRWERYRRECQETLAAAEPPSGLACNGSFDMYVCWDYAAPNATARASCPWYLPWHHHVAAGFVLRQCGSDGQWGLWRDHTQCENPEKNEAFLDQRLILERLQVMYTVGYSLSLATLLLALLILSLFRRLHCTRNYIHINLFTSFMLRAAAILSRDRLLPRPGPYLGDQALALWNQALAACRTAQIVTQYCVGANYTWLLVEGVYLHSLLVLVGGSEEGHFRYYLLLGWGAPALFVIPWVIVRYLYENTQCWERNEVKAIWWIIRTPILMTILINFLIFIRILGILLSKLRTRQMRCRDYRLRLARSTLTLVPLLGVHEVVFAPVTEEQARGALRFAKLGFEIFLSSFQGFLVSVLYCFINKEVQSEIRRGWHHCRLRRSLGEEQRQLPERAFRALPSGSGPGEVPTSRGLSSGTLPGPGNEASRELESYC
Assay: BSA-cAMP assay, cells expressing human GIP receptor
Assay type: cell-based
Conditions: BSA-cAMP assay; batch 1 unless a batch is given; read-out: cAMP activity hGIPr (EC50)
Procedure: For human GIPr, two different lines were used, shown as “hGIPr” and “hGIPr (C3)” in Table 11. One basic cAMP assays was performed, differing in the medium used for the assay, the “BSA-cAMP assay”: BSA-based assay medium: 0.1% bovine serum albumin (BSA) in […] cAMP levels were measured using a commercially available cAMP dynamic 2 HTRF kit (Cisbio, Cat #62AM4PEJ), following the two step protocol as per manufacturer's recommendations. […]
Ends that are not written are not given here.
reportedMetric: EC50 (nM)

Check out these entries, answers already filled in.
substance	EC50 / nM
IP275: Fc fusion, IgG1-TM, SEQ ID NO:332; agonist peptide YSEGTFTSDYSKLLEKEAQRLFIEWLLKGP (YSEGTFTSDYSKLLEKEAQRLFIEWLLKGPGGGGGSGGGGSGGGGSGGGGSATHTCPPC)	0.0087
IP238 (HGEGTFTSDVSSYLEGQAAKEFIAWLVKGGGGGGSGGGGSGGGGSAESKYGPPCPPC; also: forms dimer via hinge disulfides)	310

P = IP193 (HGEGTFTSDVSSYLEGQAAKEFIAWLVKGAAAGGSGSTASSGSGSATGGGGCPPCPAPEF; also: forms dimer via hinge disulfides)
Q = IP289: Fc fusion, IgG1-TM(ΔK), SEQ ID NO:342; agonist peptide YSEGTFTSDYSKLLEKEAERLFIEWLLKGP (YSEGTFTSDYSKLLEKEAERLFIEWLLKGPGGGGGSGGGGSGGGGSGGGGSATHTCPPC)
Which record would sort first by descending EC50, P or Q ? # respond with the chosen item's label
P
(P: 450 nM, Q: 0.01 nM)

---

Biological target: human GIP receptor (hGIPr) (Homo sapiens)
Construct: expressed in transfected cells
Sequence (P48546 22-466): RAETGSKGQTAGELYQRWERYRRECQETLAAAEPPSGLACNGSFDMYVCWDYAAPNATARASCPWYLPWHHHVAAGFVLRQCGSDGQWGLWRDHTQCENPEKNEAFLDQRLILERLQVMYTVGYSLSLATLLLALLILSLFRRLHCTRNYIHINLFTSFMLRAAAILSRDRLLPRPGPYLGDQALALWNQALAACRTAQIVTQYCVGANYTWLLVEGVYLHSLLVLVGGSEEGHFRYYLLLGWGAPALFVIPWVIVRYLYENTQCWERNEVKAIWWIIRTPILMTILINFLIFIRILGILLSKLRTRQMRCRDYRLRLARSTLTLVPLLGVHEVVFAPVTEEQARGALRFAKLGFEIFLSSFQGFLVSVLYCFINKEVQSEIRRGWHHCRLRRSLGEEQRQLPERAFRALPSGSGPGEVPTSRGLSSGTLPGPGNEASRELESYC
Experiment: BSA-cAMP assay, cells expressing human GIP receptor
Assay type: cell-based
Conditions: Batch 2; BSA-cAMP assay; read-out: hGIPr cAMP activity EC50
reportedMetric: pEC50
Conceptually, pEC50 converts a concentration in mol/L into minus its log10.

Summary for this substance, IP320 (YSEGTFTSDYAAAAEAAAAAAFAAWLAAAAGGGGGSGGGGSGGGGSGGGGSACPPC) : pEC50 is 7.36
